The reported numbers originate from the supplement of paper PMC9732359.

Assay name: protein stability index of a GFP-peptide fusion (yeast GPS) (PSI 1-4); higher = more stable; sorted into four equal gates, so the index is relative within each strain
Stated conditions: doa10∆
Property label: protein stability index

[[record]]
sequence_entry = "DAIAVTKGHGFEGVTHR [RPL3]"
recorded_number = 3.06

[[record]]
sequence_entry = "LLVIGGNQRKILQYSRT [YJR042W/NUP85]"
recorded_number = 1.86

[[record]]
sequence_entry = "AKIISKAPEQFIENFLT [YML103C/NUP188]"
recorded_number = 2.69

[[record]]
sequence_entry = "ISICMILCGIQEYLNPV [YDL116W/NUP84]"
recorded_number = 1.97

[[record]]
sequence_entry = "YEFPIEGIEIYDRKKLP [RPC11]"
recorded_number = 3.16

[[record]]
sequence_entry = "APDGSASISLPNHIPSV [SWP82]"
recorded_number = 3.36

[[record]]
sequence_entry = "GTPLFTFGKKADVTSNI [YOR098C/NUP1]"
recorded_number = 1.82

[[record]]
sequence_entry = "DRVIFRVPIRSEYKVAF [PRP8]"
recorded_number = 2.93

[[record]]
sequence_entry = "RILKNKAEYLKNCPITQ [RPC40]"
recorded_number = 2.96

[[record]]
sequence_entry = "TNFKEEITDASLNLQYV [YML103C/NUP188]"
recorded_number = 3.08

[[record]]
sequence_entry = "IIVKILYYRPHINKKSQ [GRR1]"
recorded_number = 1.66

[[record]]
sequence_entry = "KNQHRAASWYGSFNEMK [RMP1]"
recorded_number = 2.89

[[record]]
sequence_entry = "KDGEDIIFNYVPGPGTK [CSL4]"
recorded_number = 2.56

[[record]]
sequence_entry = "GRLDRKIEFPLPSEDSR [RPT5]"
recorded_number = 3.36

[[record]]
sequence_entry = "KSTDNSAIRQVFERFKT [IRR1]"
recorded_number = 2.21

[[record]]
sequence_entry = "RRTNTPIGRDGKLAKPR [RPB2]"
recorded_number = 3.08

[[record]]
sequence_entry = "MACNFQFPEIAYPGKLI [CSL4]"
recorded_number = 2.88

[[record]]
sequence_entry = "TRKAMLDPLEVHMLDFP [PRP8]"
recorded_number = 2.84

[[record]]
sequence_entry = "AVFIVPKILIREHERVI [SWP82]"
recorded_number = 1.7

[[record]]
sequence_entry = "SAQAETEALLLEHDVEY [DIS3]"
recorded_number = 3.19

[[record]]
sequence_entry = "ESRSFSPIPFPPLTYKN [PRP8]"
recorded_number = 3.04

[[record]]
sequence_entry = "LKSLNDIETQLCSMLQE [MED11]"
recorded_number = 2.54

[[record]]
sequence_entry = "TILCTPTGGKAKLSEGT [RPS27A]"
recorded_number = 2.83

[[record]]
sequence_entry = "ATAEKLPNIYPSTRCKL [RPT2]"
recorded_number = 2.14

[[record]]
sequence_entry = "AENSHTQPKATSTGTTI [PUP1]"
recorded_number = 3.17

[[record]]
sequence_entry = "KNIHISKRSKIDIINKL [YML103C/NUP188]"
recorded_number = 1.34

[[record]]
sequence_entry = "NANIFSSVKCFGPIKVE [FAS1]"
recorded_number = 2.04

[[record]]
sequence_entry = "VLDSYTPSTNEPYARVS [FAS1]"
recorded_number = 2.94

[[record]]
sequence_entry = "RKLINYTKKHLSSHSST [RPN4]"
recorded_number = 1.34

[[record]]
sequence_entry = "CSNNKNSIKNVPPILII [SSN2]"
recorded_number = 2.39

[[record]]
sequence_entry = "NQDSVKTYALESINNVV [RPN2]"
recorded_number = 3.23

[[record]]
sequence_entry = "LLGTMAGGAADCQFWET [PRE2]"
recorded_number = 1.61

[[record]]
sequence_entry = "ATSTNPAKSASARGSYL [RPL17A]"
recorded_number = 2.25

[[record]]
sequence_entry = "VVAKKDFNQAKHEEIDT [RPS10A]"
recorded_number = 3.51

[[record]]
sequence_entry = "KFEPLYPREEEEDYNEF [PRP8]"
recorded_number = 3.35

[[record]]
sequence_entry = "EKAKEMIRLLGSESDDS [ECM29]"
recorded_number = 2.51

[[record]]
sequence_entry = "DANLLEEGETSRPLKKV [SWI3]"
recorded_number = 3.23

[[record]]
sequence_entry = "DSENFSFEKLYEGMKLG [YMR129W/POM152]"
recorded_number = 3.5

[[record]]
sequence_entry = "VEMAWIMGFISYHNGNL [FAS2]"
recorded_number = 2.67

[[record]]
sequence_entry = "PPPPGFEEDSDLALPPP [PRP8]"
recorded_number = 3.22

[[record]]
sequence_entry = "LNFKDDKKYKGLTTVWL [REC8]"
recorded_number = 2.71

[[record]]
sequence_entry = "SGVKNDILQSLSGGGHD [CDC53]"
recorded_number = 3.09

